# Assay target: biotinylated anti-human CD3ε antibody (capture surface of Example 6)
# Experimental details: SPR Biacore T200; IgG 1 ug/ml over captured biotinylated anti-human CD3ε antibody, normalised to anti-human IgG surface and to the unstressed sample; sample stressed 14 d/37° C. pH 7.4
Readout type: Relative active concentrations (%)
Answer format: numeric, % implied, no suffix.

Specify Relative active concentrations (%) for P1AF1284 H2L2 anti-idiotypic IgG1 (antibody, V domains shown) VH: QVQLVQSGSELKKPGASVKVSCKASGYTVTDYSMNWVRQAPGQGLEWMGWINTETGEPRYTDDFTGRFVFSLDTSVSTAYLQISSLKAEDTAVYYCAREGDYDVFDYWGQGTLVTVSS VL: DIVMTQSPDSLAVSLGERATINCKSSKSVSTSSYSYMHWYQQKPGQPPKLLIKYVSYLESGVPDRFSGSGSGTDFTLTISSLQAEDVAVYYCQHSREFPYTFGQGTKLEIK and stop.
93

Quote Relative active concentrations (%) reported for P1AF1283 H1L2 anti-idiotypic IgG1 (antibody, V domains shown) VH: QVQLVQSGSELKKPGASVKVSCKASGYTVTDYSMNWVRQAPGQGLEWMGWINTETGEPRYTDDFKGRFVFSLDTSVSTAYLQISSLKAEDTAVYYCAREGDYDVFDYWGQGTLVTVSS VL: DIVMTQSPDSLAVSLGERATINCKSSKSVSTSSYSYMHWYQQKPGQPPKLLIKYVSYLESGVPDRFSGSGSGTDFTLTISSLQAEDVAVYYCQHSREFPYTFGQGTKLEIK please.
94

Quickly give me recorded Relative active concentrations (%) for P1AF1287 H7L5 anti-idiotypic IgG1 (antibody, V domains shown) VH: QVQLVQSGAEVKKPGASVKVSCKASGYTVTDYSMNWVRQAPGQGLEWMGWINTETGEPRYTDDFKGRVTMTRDTSISTAYMELSRLRSDDTAVYYCAREGDYDVFDYWGQGTLVTVSS VL: DIVMTQSPDSLAVSLGERATINCRASKSVSTSSYSYMHWYQQKPGQPPKLLIYYVSYLESGVPDRFSGSGSGTDFTLTISSLQAEDVAVYYCQHSREFPYTFGQGTKLEIK
80

FYI, the data here is from patent US20260035462A1.
